Exercise: state measured selectivity ratio for each of the molecules provided.
Assay: Selectivity index, ratio of IC50 for rat L6 cells to IC50 for bloodstream form of Trypanosoma brucei 221
Assay type: toxicity, cell-based
Conditions: read-out: Ratio IC50
Give bare numbers.

Worked examples follow.
CCC1=C[C@@H]2Cc3nc4cc(Cl)ccc4c(NCCCN4CCC(CC5Cc6cc(OC)c(OC)cc6C5)CC4)c3[C@H](C1)C2
8.3
CCC1=C[C@@H]2Cc3nc4cc(Cl)ccc4c(NCCN4CCC(CC5Cc6cc(OC)c(OC)cc6C5)CC4)c3[C@H](C1)C2
22
CC1=CC2Cc3nc4cc(Cl)ccc4c(NCCCCCCCCCCNc4c5c(nc6ccccc46)CCCC5)c3C(C1)C2 (stereo not drawn)
12

# evaluate next
Query: Please give the measured selectivity ratio for this molecule: CC1=CC2Cc3nc4cc(Cl)ccc4c(NCCCCCCCCCNc4c5c(nc6cc(Cl)ccc46)CCCC5)c3C(C1)C2 (stereo not drawn)
Result: 167

* * *

Experiment: Selectivity index, ratio of IC50 for rat L6 cells to IC50 for chloroquine-resistant Plasmodium falciparum K1
Type: toxicity, cell-based
Settings: read-out: Ratio IC50
recorded-metric: selectivity ratio

CC1=CC2Cc3nc4ccccc4c(NCCCCCCCCCCNc4c5c(nc6ccccc46)CCCC5)c3C(C1)C2 (stereo unspecified)
< 0.29
CC1=CC2Cc3nc4cc(Cl)ccc4c(NCCCN(C)CCCNc4c5c(nc6ccccc46)CCCC5)c3C(C1)C2 (stereo unspecified)
< 2.3
CCC1=CC2Cc3nc4cc(Cl)ccc4c(NCCN4CCC(CC5Cc6cc(OC)c(OC)cc6C5)CC4)c3C(C1)C2 (stereo unspecified)
< 0.5
CC1=CC2Cc3nc4cc(Cl)ccc4c(NCCCCCCCCCCNc4c5c(nc6cc(Cl)ccc46)CCCC5)c3C(C1)C2 (stereo unspecified)
1.3

Record selectivity ratio per entry; entries follow.
1. CC1=C[C@H]2Cc3nc4cc(Cl)ccc4c(NCCCCCCCNc4c5c(nc6ccccc46)CCCC5)c3[C@@H](C1)C2
2. CC1=CC2Cc3nc4ccccc4c(NCCCCCCCCCCCCNc4c5c(nc6ccccc46)CCCC5)c3C(C1)C2 (stereo unspecified)
3. CC1=CC2Cc3nc4ccccc4c(NCCCCCCCCCCCCNc4c5c(nc6cc(Cl)ccc46)CCCC5)c3C(C1)C2 (stereo unspecified)
4. CC1=CC2Cc3nc4cc(Cl)ccc4c(NCCCCCCCCCCCCNc4c5c(nc6cc(Cl)ccc46)CCCC5)c3C(C1)C2 (stereo unspecified)
5. CC1=CC2Cc3nc4cc(Cl)ccc4c(NCCCCCCNc4c5c(nc6ccccc46)CCCC5)c3C(C1)C2 (stereo unspecified)
6. CC1=CC2Cc3nc4cc(Cl)ccc4c(NCCCCCCCCNc4c5c(nc6ccccc46)CCCC5)c3C(C1)C2 (stereo unspecified)

Result:
1: 2.1; 2: < 0.14; 3: < 0.4; 4: < 0.85; 5: 0.39; 6: 2.8

* * *

Assay: Selectivity index, ratio of IC50 for rat L6 cells to IC50 for bloodstream form of Trypanosoma brucei 221
Assay type: toxicity, cell-based
Settings: read-out: Ratio IC50
recorded-metric: selectivity ratio
One number for each entry.

Worked examples follow.
COc1cc2c(cc1OC)CC(CC1CCN(CCNc3c4c(nc5cc(Cl)ccc35)CC3C=C(C)CC4C3)CC1)C2 (centres undefined)
14
COc1cc2c(cc1OC)CC(CC1CCN(CCNc3c4c(nc5cc(Cl)ccc35)CCCC4)CC1)C2
2.5

# evaluate next
Query: Please give the measured selectivity ratio for this compound: CC1=CC2Cc3nc4ccccc4c(NCCCCCCCCCCCCNc4c5c(nc6cc(Cl)ccc46)CCCC5)c3C(C1)C2 (centres undefined)
Result: 5
